The reader will find reported AUC(0-inf) values listed item by item below.
Assay: Pharmacokinetics in plasma and brain after IV administration
Type: in vivo
Conditions: mouse; plasma, IV 1 mg/kg, male C57BL/6 mice, PK cassette
Please reply with the bare figure in ng·h/mL and do not write the unit itself.

Ask: Consider the compound shown here: "Nc1ccc(-c2cccs2)cc1NC(=O)c1cc2ccc(N3CCNCC3)cc2cn1" What is its recorded AUC(0-inf)?
Reply: 1620

Ask: Which AUC(0-inf) is listed for "Nc1ccc(-c2ccncc2)cc1NC(=O)c1cc2ccc(N3CCNCC3)cc2cn1" ?
Reply: 799

Ask: Tell me the measured AUC(0-inf) of "Nc1ccc(-c2ccccc2)cc1NC(=O)c1cc2ccc(N3CCNCC3)cc2cn1" , please.
Reply: 3010

Ask: Tell me the measured AUC(0-inf) of "Nc1ccc(-c2ccccc2)cc1NC(=O)c1cc2ccc(N3CCNCC3=O)cc2cn1" , please.
Reply: 3820

----------
Assay: Pharmacokinetics in plasma and brain after IV administration
Type: in vivo
Conditions: mouse; plasma, IV 1 mg/kg, male C57BL/6 mice, PK cassette
Known MRT inf of a selection of compounds

| Compound | MRT inf |
| --- | --- |
| Nc1ccc(-c2ccccc2)cc1NC(=O)c1cc2ccc(N3CCNCC3)cc2cn1 [Compound 1] | 10.4 h |

Ask: Please look up its MRT inf: Nc1ccc(-c2cccs2)cc1NC(=O)c1cc2ccc(N3CCNCC3)cc2cn1 [Compound 2]
Reply: 6.97 h

Ask: If you can, please state the reported MRT inf value of Nc1ccc(-c2ccncc2)cc1NC(=O)c1cc2ccc(N3CCNCC3)cc2cn1 [Compound 3] .
Reply: 5.45 h

Ask: Fill blank: measured MRT inf of the compound Nc1ccc(-c2ccccc2)cc1NC(=O)c1cc2ccc(N3CCNCC3=O)cc2cn1 [Compound 4] is ____.
Reply: 8.72 h
